B1: r16_88_TrROS_Hall (parent)
chain: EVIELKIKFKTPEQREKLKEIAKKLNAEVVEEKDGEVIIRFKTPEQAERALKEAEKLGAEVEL

Variants of: B1
Test: folding stability dG (cDNA display proteolysis); higher = more stable
Conditions: PBS, room temperature
Property Name: folding stability dG (kcal/mol)
Answer format: numeric, kcal/mol implied, no suffix.

Check out these entries, answers already filled in.
| Mutation Label | folding stability dG / kcal/mol |
| --- | --- |
| F9N | 3.54 |
| A59R | 3.99 |
| K42T | 4.13 |
| E62F | 4.25 |
| L25F | 4.63 |
| F41T | 3.73 |

Ask: Fill in the blank: the reported folding stability dG of A22S is ____.
Result: 4.19

Ask: Same read-out for E55H ?
Result: 4.21

Ask: Same read-out for L51Q ?
Result: 4.53

Ask: Same read-out for E4M ?
Result: 4.72

Ask: Same read-out for V2D ?
Result: 4.1

Ask: Same read-out for K8A ?
Result: 4.09

Ask: Same read-out for K8L ?
Result: 4.31

Ask: Same read-out for P44G ?
Result: 4.37

From: the MegaScale stability set (Tsuboyama et al. 2023)
